Cited source for all entries: ChEMBL document CHEMBL1125427

System: Mus musculus
method_summary: The compound was evaluated for inhibition of edema induced by serotonin at 250 ug/mL
Assay type: functional
Listed here are molecules together with their documented Inhibition.

# smiles_notation, Inhibition
measured = [
    ("O=c1oc2ccc(Cl)cc2n1CCc1ccccn1", "10.5%"),
    ("O=C(c1ccccc1)c1ccc2c(c1)oc(=O)n2CCc1ccncc1", "14.1%"),
    ("COc1ccc(C(=O)c2ccc3c(c2)oc(=O)n3CCc2ccccn2)cc1", "9.9%"),
    ("O=C(c1ccccc1Cl)c1cc2oc(=O)n(CCc3ccccn3)c2cc1Cl", "9%"),
    ("O=C(c1ccc2c(c1)oc(=O)n2CCc1ccccn1)c1ccccc1Cl", "18.2%"),
    ("O=C(c1ccc2c(c1)oc(=O)n2CCc1ccncc1)c1ccccc1Cl", "10%"),
]

###

Species on record: Mus musculus
method_summary: Analgesic activity in mice
Type: functional
Set-up: concentration or dose not given beside the values
Entries and their Analgesic activity values follow.
readout_label: Analgesic activity

# smiles_notation, readout_label, observed_value
records = [
    ("O=C(c1ccccc1Cl)c1cc2oc(=O)n(CCc3ccccn3)c2cc1Cl", "Analgesic activity", "72.67%"),
    ("O=c1oc2ccc(Cl)cc2n1CCc1ccccn1", "Analgesic activity", "96.96%"),
    ("COc1ccc(C(=O)c2ccc3c(c2)oc(=O)n3CCc2ccccn2)cc1", "Analgesic activity", "80.34%"),
    ("O=C(c1ccccc1)c1ccc2c(c1)oc(=O)n2CCc1ccccn1", "Analgesic activity", "79.49%"),
    ("O=C(c1ccccc1Cl)c1cc2oc(=O)n(CCc3ccncc3)c2cc1Cl", "Analgesic activity", "92.61%"),
    ("O=c1oc2ccccc2n1CCc1ccncc1", "Analgesic activity", "96.06%"),
    ("COc1ccc(C(=O)c2ccc3c(c2)oc(=O)n3CCc2ccncc2)cc1", "Analgesic activity", "75.21%"),
    ("O=c1oc2ccccc2n1CCc1ccccn1", "Analgesic activity", "92.17%"),
    ("CC(=O)c1ccc2c(c1)oc(=O)n2CCc1ccccn1", "Analgesic activity", "48.74%"),
    ("O=C(c1ccc2c(c1)oc(=O)n2CCc1ccccn1)c1ccccc1Cl", "Analgesic activity", "91.74%"),
    ("O=c1oc2ccc(Cl)cc2n1CCc1ccncc1", "Analgesic activity", "100%"),
    ("O=C(c1ccc2c(c1)oc(=O)n2CCc1ccncc1)c1ccccc1Cl", "Analgesic activity", "84.35%"),
    ("CC(=O)c1ccc2c(c1)oc(=O)n2CCc1ccncc1", "Analgesic activity", "38.46%"),
    ("O=C(c1ccccc1)c1ccc2c(c1)oc(=O)n2CCc1ccncc1", "Analgesic activity", "85.47%"),
]

###

Test system: Mus musculus
method_summary: The compound was evaluated for inhibition of edema induced by bradykinin at 100 ug/mL
Type: functional

# smiles_notation, Inhibition, %
data = [
    ("O=C(c1ccc2c(c1)oc(=O)n2CCc1ccccn1)c1ccccc1Cl", 6.4),
    ("O=C(c1ccccc1Cl)c1cc2oc(=O)n(CCc3ccncc3)c2cc1Cl", 12),
    ("O=C(c1ccc2c(c1)oc(=O)n2CCc1ccncc1)c1ccccc1Cl", 7),
    ("O=C(c1ccccc1Cl)c1cc2oc(=O)n(CCc3ccccn3)c2cc1Cl", 7.6),
    ("O=c1oc2ccccc2n1CCc1ccccn1", 6),
    ("COc1ccc(C(=O)c2ccc3c(c2)oc(=O)n3CCc2ccccn2)cc1", 13),
    ("COc1ccc(C(=O)c2ccc3c(c2)oc(=O)n3CCc2ccncc2)cc1", 10),
    ("O=C(c1ccccc1)c1ccc2c(c1)oc(=O)n2CCc1ccncc1", 10),
    ("O=c1oc2ccc(Cl)cc2n1CCc1ccccn1", 7),
    ("O=C(c1ccccc1)c1ccc2c(c1)oc(=O)n2CCc1ccccn1", 11),
    ("O=c1oc2ccccc2n1CCc1ccncc1", 6.4),
    ("O=c1oc2ccc(Cl)cc2n1CCc1ccncc1", 9),
]

###

Test system: Mus musculus
method_summary: The compound was evaluated for inhibition of edema induced by histamine at 10 mg/mL
Assay type: functional
In this section we review reported Inhibition values for a set of compounds.

# compound, assayed_system, Inhibition / %
measured = [
    ("COc1ccc2c(c1)c(CC(=O)O)c(C)n2C(=O)c1ccc(Cl)cc1 [INDOMETHACIN]", "Mus musculus", 14.7),
    ("O=c1oc2ccccc2n1CCc1ccccn1", "Mus musculus", 5.5),
    ("COc1ccc(C(=O)c2ccc3c(c2)oc(=O)n3CCc2ccncc2)cc1", "Mus musculus", 8),
    ("COc1ccc(C(=O)c2ccc3c(c2)oc(=O)n3CCc2ccccn2)cc1", "Mus musculus", 5.4),
    ("O=C(c1ccccc1Cl)c1cc2oc(=O)n(CCc3ccccn3)c2cc1Cl", "Mus musculus", 10),
    ("O=C(c1ccccc1)c1ccc2c(c1)oc(=O)n2CCc1ccccn1", "Mus musculus", 6),
    ("O=C(c1ccc2c(c1)oc(=O)n2CCc1ccncc1)c1ccccc1Cl", "Mus musculus", 7.4),
    ("O=c1oc2ccc(Cl)cc2n1CCc1ccncc1", "Mus musculus", 11),
    ("O=C(c1ccccc1)c1ccc2c(c1)oc(=O)n2CCc1ccncc1", "Mus musculus", 8.5),
    ("O=c1oc2ccc(Cl)cc2n1CCc1ccccn1", "Mus musculus", 9),
    ("O=c1oc2ccccc2n1CCc1ccncc1", "Mus musculus", 7.6),
]
